# Species: Homo sapiens
# test_summary: Selectivity human recombinant adrenergic Alpha-2C receptor over human recombinant adrenergic alpha2A receptor by FLIPR
Kindly state Ratio Ki for each of the entries shown.
One number for each entry.

compound	readout_value
COc1ccccc1N1CCN(CC2COc3ccccc3O2)CC1 (stereo not given)	7

For each of the compounds below, state Ratio Ki.
1. CC(C)(C)Nc1ncccc1C(=O)NCCN1CCCN(CC2COc3ccccc3O2)CC1 (stereo not given)
2. CCCCOc1ncccc1C(=O)NCCN1CCCN(CC2COc3ccccc3O2)CC1 (stereo not given)
3. c1ccc(Oc2ncccc2COCCN2CCCN(CC3COc4ccccc4O3)CC2)cc1 (stereo not given)
4. c1ccc(Oc2ncccc2-c2noc(CN3CCCN(CC4COc5ccccc5O4)CC3)n2)cc1 (stereo not given)
5. O=C(NCCN1CCCN(CC2COc3ccccc3O2)CC1)c1cccnc1Oc1ccccc1 (stereo not given)
6. c1ccc(CN2CCN(CC3CCc4ccccc4O3)CC2)cc1 (stereo not given)
7. CCCCOc1cccc(C(=O)NCCN2CCCN(CC3COc4ccccc4O3)CC2)n1 (stereo not given)

[reply]
1. 12
2. 15
3. 41
4. 9
5. 19
6. 8
7. 13

[ask] What Ratio Ki value was documented for this compound, N#Cc1cccc(Oc2ncccc2C(=O)NCCN2CCCN(CC3COc4ccccc4O3)CC2)c1 (stereo not given) ?
[reply] 262

* * *

# measured_target: Alpha-2A adrenergic receptor (Homo sapiens)
# Sequence (P08913 whole entry): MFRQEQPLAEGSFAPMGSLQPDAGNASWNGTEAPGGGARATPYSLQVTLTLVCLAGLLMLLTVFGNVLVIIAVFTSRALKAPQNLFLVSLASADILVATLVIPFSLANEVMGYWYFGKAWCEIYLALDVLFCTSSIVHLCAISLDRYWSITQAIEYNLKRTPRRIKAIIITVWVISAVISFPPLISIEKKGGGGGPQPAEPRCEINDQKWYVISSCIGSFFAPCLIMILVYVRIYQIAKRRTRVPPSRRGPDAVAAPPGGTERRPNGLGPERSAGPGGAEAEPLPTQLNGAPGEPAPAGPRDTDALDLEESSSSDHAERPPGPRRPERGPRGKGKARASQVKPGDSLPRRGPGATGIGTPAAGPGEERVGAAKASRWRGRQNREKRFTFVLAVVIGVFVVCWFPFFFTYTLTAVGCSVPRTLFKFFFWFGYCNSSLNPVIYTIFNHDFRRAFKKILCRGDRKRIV
# test_summary: Binding affinity at human recombinant adrenergic alpha2A receptor expressed in CHO cells by radioligand binding assay
# Assay type: cell-based
measured_metric: pKi
Numbers only, as −log10 of the molar value.

compound	readout_value
O=C(NCCN1CCCN(CC2COc3ccccc3O2)CC1)c1cccnc1Oc1ccccc1 (stereo not drawn)	6.66
CC(C)(C)Nc1ncccc1C(=O)NCCN1CCCN(CC2COc3ccccc3O2)CC1 (stereo not drawn)	6.86

Moving on to the next compound.
[ask] What pKi value was documented for this compound, O=C(NCCN1CCCN(CC2COc3ccccc3O2)CC1)c1cccnc1 (stereo not drawn) ?
[reply] 6.35

* * *

# Organism: Homo sapiens
# test_summary: Selectivity for human recombinant adrenergic Alpha-2C receptor over human recombinant adrenergic alpha2A receptor by radioligand binding assay
measured_metric: Ratio Ki
Numbers only.

Examples with their reported Ratio Ki follow.
compound	measured_metric	readout_value
O=C(NCCN1CCCN(C[C@@H]2COc3ccccc3O2)CC1)c1cccnc1Oc1ccccc1	Ratio Ki	53
c1ccc(Oc2ncccc2COCCN2CCCN(CC3COc4ccccc4O3)CC2)cc1 (stereo not drawn)	Ratio Ki	26

For each of the compounds below, state Ratio Ki.
1. O=C(NCCN1CCCN(CC2COc3ccccc3O2)CC1)c1cccnc1 (stereo not drawn)
2. O=C(NCCN1CCN(CC2COc3ccccc3O2)CC1)c1cccnc1Oc1ccccc1 (stereo not drawn)
3. N#Cc1cccc(Oc2ncccc2C(=O)NCCN2CCCN(CC3COc4ccccc4O3)CC2)c1 (stereo not drawn)
4. O=C(NCCN1CCCN(C[C@H]2COc3ccccc3O2)CC1)c1cccnc1Oc1ccccc1
5. O=C(NCCN1CCCN(CC2COc3ccccc3O2)CC1)c1cccnc1Oc1ccccc1 (stereo not drawn)

[reply]
[28, 9, 275, 106, 44]

[ask] What Ratio Ki value was documented for this compound, c1ccc(CN2CCN(CC3CCc4ccccc4O3)CC2)cc1 (stereo not drawn) ?
[reply] 7

* * *

# measured_target: Alpha-2B adrenergic receptor (Homo sapiens)
# Sequence (P18089 whole entry): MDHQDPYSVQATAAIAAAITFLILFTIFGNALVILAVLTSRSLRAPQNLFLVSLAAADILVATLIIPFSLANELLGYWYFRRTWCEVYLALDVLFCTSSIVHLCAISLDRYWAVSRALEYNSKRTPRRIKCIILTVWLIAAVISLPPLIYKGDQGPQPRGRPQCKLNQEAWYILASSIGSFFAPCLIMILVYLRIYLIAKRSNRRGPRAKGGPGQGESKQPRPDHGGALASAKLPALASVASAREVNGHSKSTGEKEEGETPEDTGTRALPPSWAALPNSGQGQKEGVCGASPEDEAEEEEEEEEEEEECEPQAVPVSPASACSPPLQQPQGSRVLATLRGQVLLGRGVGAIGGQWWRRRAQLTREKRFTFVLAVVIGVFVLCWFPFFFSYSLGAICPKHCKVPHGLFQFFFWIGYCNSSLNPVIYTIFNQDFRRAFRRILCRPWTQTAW
# test_summary: Binding affinity at human recombinant adrenergic alpha2B receptor expressed in CHO cells by radioligand binding assay
# Type: cell-based
Kindly state Ki for each of the entries shown.
Numbers only, in nM.

compound	readout_value
O=C(NCCN1CCN(CC2COc3ccccc3O2)CC1)c1cccnc1Oc1ccccc1 (stereo not drawn)	8
CCCCOc1ncccc1C(=O)NCCN1CCCN(CC2COc3ccccc3O2)CC1 (stereo not drawn)	10.5
c1ccc(Oc2ncccc2-c2noc(CN3CCCN(CC4COc5ccccc5O4)CC3)n2)cc1 (stereo not drawn)	15.3
N#Cc1cccc(Oc2ncccc2C(=O)NCCN2CCCN(CC3COc4ccccc4O3)CC2)c1 (stereo not drawn)	36
O=C(NCCN1CCCN(CC2COc3ccccc3O2)CC1)c1cccnc1 (stereo not drawn)	17.9

For each of the compounds below, state Ki.
1. c1ccc(Oc2ncccc2COCCN2CCCN(CC3COc4ccccc4O3)CC2)cc1 (stereo not drawn)
2. CC(C)(C)Nc1ncccc1C(=O)NCCN1CCCN(CC2COc3ccccc3O2)CC1 (stereo not drawn)
3. O=C(NCCN1CCCN(CC2COc3ccccc3O2)CC1)c1cccnc1Oc1ccccc1 (stereo not drawn)
4. c1ccc(CN2CCN(CC3CCc4ccccc4O3)CC2)cc1 (stereo not drawn)

[reply]
1. 69.5
2. 28
3. 49
4. 72.8

For each of the compounds below, state Ki.
1. COc1ccccc1N1CCN(CC2COc3ccccc3O2)CC1 (stereo not drawn)
2. CCCCOc1cccc(C(=O)NCCN2CCCN(CC3COc4ccccc4O3)CC2)n1 (stereo not drawn)
3. O=C(NCCN1CCCN(C[C@H]2COc3ccccc3O2)CC1)c1cccnc1Oc1ccccc1

[reply]
1: 194; 2: 10.9; 3: 14.3

* * *

# measured_target: UniProt:P18825
# test_summary: Antagonist activity at human recombinant adrenergic Alpha-2C receptor expressed in CHO cells assessed as inhibition of NE-induced calcium mobilization by FLIPR
# Assay type: functional, cell-based
Kindly state Ki for each of the entries shown.
Answers are plain numbers, in nM.

Examples with their reported Ki follow.
compound	Ki / nM
c1ccc(Oc2ncccc2-c2noc(CN3CCCN(CC4COc5ccccc5O4)CC3)n2)cc1 (stereo not given)	1.7
CCCCOc1cccc(C(=O)NCCN2CCCN(CC3COc4ccccc4O3)CC2)n1 (stereo not given)	3.8
COc1ccccc1N1CCN(CC2COc3ccccc3O2)CC1 (stereo not given)	23

For each of the compounds below, state Ki.
1. O=C(NCCN1CCCN(C[C@H]2COc3ccccc3O2)CC1)c1cccnc1Oc1ccccc1
2. N#Cc1cccc(Oc2ncccc2C(=O)NCCN2CCCN(CC3COc4ccccc4O3)CC2)c1 (stereo not given)
3. O=C(NCCN1CCCN(CC2COc3ccccc3O2)CC1)c1cccnc1Oc1ccccc1 (stereo not given)
4. CC(C)(C)Nc1ncccc1C(=O)NCCN1CCCN(CC2COc3ccccc3O2)CC1 (stereo not given)
5. c1ccc(CN2CCN(CC3CCc4ccccc4O3)CC2)cc1 (stereo not given)

[reply]
1. 1.9
2. 1.9
3. 25
4. 30.5
5. 21.1

For each of the compounds below, state Ki.
1. CCCCOc1ncccc1C(=O)NCCN1CCCN(CC2COc3ccccc3O2)CC1 (stereo not given)
2. c1ccc(Oc2ncccc2COCCN2CCCN(CC3COc4ccccc4O3)CC2)cc1 (stereo not given)

[reply]
[4.8, 6.8]

* * *

# measured_target: Alpha-2C adrenergic receptor (Homo sapiens, UniProt P18825)
# Sequence (P18825 whole entry): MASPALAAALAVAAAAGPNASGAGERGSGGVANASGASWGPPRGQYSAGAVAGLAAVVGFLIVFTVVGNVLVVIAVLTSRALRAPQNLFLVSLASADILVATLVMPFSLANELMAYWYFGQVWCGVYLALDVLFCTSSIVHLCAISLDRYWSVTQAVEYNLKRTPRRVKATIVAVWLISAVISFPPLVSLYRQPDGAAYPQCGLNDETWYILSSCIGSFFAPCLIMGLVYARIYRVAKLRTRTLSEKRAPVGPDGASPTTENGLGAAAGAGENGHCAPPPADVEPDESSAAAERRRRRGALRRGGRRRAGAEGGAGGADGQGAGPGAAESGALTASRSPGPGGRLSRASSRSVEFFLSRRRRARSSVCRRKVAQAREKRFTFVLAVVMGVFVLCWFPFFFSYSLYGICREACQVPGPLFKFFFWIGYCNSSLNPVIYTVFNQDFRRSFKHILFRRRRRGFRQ
# test_summary: Binding affinity at human recombinant adrenergic Alpha-2C receptor expressed in CHO cells by radioligand binding assay
# Type: cell-based
# label = bin(measured Ki), where bins are low end = under 0.9 nM, middle = from 0.9 nM up to 5 nM, high end = 5 nM and over

Example results:
compound	assigned_class
O=C(NCCN1CCCN(CC2COc3ccccc3O2)CC1)c1cccnc1 (stereo not given)	high end
c1ccc(CN2CCN(CC3CCc4ccccc4O3)CC2)cc1 (stereo not given)	high end
N#Cc1cccc(Oc2ncccc2C(=O)NCCN2CCCN(CC3COc4ccccc4O3)CC2)c1 (stereo not given)	low end
CCCCOc1ncccc1C(=O)NCCN1CCCN(CC2COc3ccccc3O2)CC1 (stereo not given)	low end
c1ccc(Oc2ncccc2-c2noc(CN3CCCN(CC4COc5ccccc5O4)CC3)n2)cc1 (stereo not given)	middle

[ask] // return the class label for `O=C(NCCN1CCCN(C[C@@H]2COc3ccccc3O2)CC1)c1cccnc1Oc1ccccc1`
[reply] high end

[ask] // return the class label for c1ccc(Oc2ncccc2COCCN2CCCN(CC3COc4ccccc4O3)CC2)cc1 (stereo not given)
[reply] middle

[ask] // return the class label for CC(C)(C)Nc1ncccc1C(=O)NCCN1CCCN(CC2COc3ccccc3O2)CC1 (stereo not given)
[reply] low end

* * *

# Organism: Homo sapiens
# test_summary: Selectivity human recombinant adrenergic Alpha-2C receptor over human recombinant adrenergic alpha2B receptor by FLIPR
So basically: is Ratio Ki under 5? Then YES. Not under? Then NO.

molecule	assigned_class
N#Cc1cccc(Oc2ncccc2C(=O)NCCN2CCCN(CC3COc4ccccc4O3)CC2)c1 (stereo not given)	NO
CCCCOc1ncccc1C(=O)NCCN1CCCN(CC2COc3ccccc3O2)CC1 (stereo not given)	YES
c1ccc(Oc2ncccc2-c2noc(CN3CCCN(CC4COc5ccccc5O4)CC3)n2)cc1 (stereo not given)	YES
COc1ccccc1N1CCN(CC2COc3ccccc3O2)CC1 (stereo not given)	YES

[ask] Input c1ccc(CN2CCN(CC3CCc4ccccc4O3)CC2)cc1 (stereo not given) ; condition: Ratio Ki strictly below 5. Does it hold?
[reply] NO

[ask] Input CC(C)(C)Nc1ncccc1C(=O)NCCN1CCCN(CC2COc3ccccc3O2)CC1 (stereo not given) ; condition: Ratio Ki strictly below 5. Does it hold?
[reply] YES

[ask] Input CCCCOc1cccc(C(=O)NCCN2CCCN(CC3COc4ccccc4O3)CC2)n1 (stereo not given) ; condition: Ratio Ki strictly below 5. Does it hold?
[reply] YES

[ask] Input c1ccc(Oc2ncccc2COCCN2CCCN(CC3COc4ccccc4O3)CC2)cc1 (stereo not given) ; condition: Ratio Ki strictly below 5. Does it hold?
[reply] NO

[ask] Input `O=C(NCCN1CCCN(C[C@H]2COc3ccccc3O2)CC1)c1cccnc1Oc1ccccc1` ; condition: Ratio Ki strictly below 5. Does it hold?
[reply] NO
